# Tested on: E. coli TOP10
# Test: Suicide expression system (SES) growth inhibition
# Format: cell-based
# Reported conditions: Table 5; mixed-motif library, re-tested in the Bioscreen C
Measurement label: Growth inhibition (%)
Give bare numbers, in %.

Solved entries (count: 3):
| Substance | Growth inhibition (%) |
| --- | --- |
| 299 (RRRPPRLPRPVPIRPPPRFPRPIPFRP; Synthetic antimicrobial peptide) [compound 299] | 96 |
| 241 (RRRPPRLPRPFPVRPPPRIPRPIPFRP; Synthetic antimicrobial peptide) [compound 241] | 96 |
| 294 (RRRPPRLPRPVPFRPPPRFPRPVPLRP; Synthetic antimicrobial peptide) [compound 294] | 95 |

Report Growth inhibition (%) for every entry below.
1. 221 (RRRPPRLPRPFPIRPPPRFPRPLPFRP; Synthetic antimicrobial peptide) [compound 221]
2. 253 (RRRPPRLPRPIPFRPPPRLPRPIPIRP; Synthetic antimicrobial peptide) [compound 253]
3. 244 (RRRPPRLPRPFPVRPPPRLPRPVPFRP; Synthetic antimicrobial peptide) [compound 244]
4. 307 (RRRPPRLPRPVPVRPPPRVPRPVPFRP; Synthetic antimicrobial peptide) [compound 307]

**A:**
1. 93
2. 91
3. 90
4. 92

---

# Tested on: E. coli TOP10
# Test: Suicide expression system (SES) growth inhibition
# Type: cell-based
# Reported conditions: Table 5; mixed-motif library, re-tested in the Bioscreen C
Measurement label: Growth inhibition (%)

Report Growth inhibition (%) for every entry below.
1. 264 (RRRPPRLPRPLPFRPPPRFPRPVPVRP; Synthetic antimicrobial peptide) [compound 264]
2. 219 (RRRPPRLPRPFPFRPPPRVPRPLPFRP; Synthetic antimicrobial peptide) [compound 219]
3. 277 (RRRPPRLPRPLPIRPPPRVPRPFPIRP; Synthetic antimicrobial peptide) [compound 277]

**A:**
1. 92%
2. 93%
3. 91%

---

Consider the following substances; for each one, report its Growth inhibition (%).
# Tested on: E. coli TOP10
# Test: Suicide expression system (SES) growth inhibition
# Type: cell-based
# Reported conditions: Table 5; mixed-motif library, re-tested in the Bioscreen C
Give bare numbers, in %.

Solved entries (count: 3):
| Substance | Growth inhibition (%) |
| --- | --- |
| 289 (RRRPPRLPRPLPVRPPPRVPRPFPVRP; Synthetic antimicrobial peptide) [compound 289] | 95 |
| 319 (RRRPPRVPRPFPVRPPPRVPRPIPFVHNCSRTKTHLRRGSE; Synthetic antimicrobial peptide) [compound 319] | 93 |
| 247 (RRRPPRLPRPFPVRPPPRVPRPLPFRP; Synthetic antimicrobial peptide) [compound 247] | 93 |

Report Growth inhibition (%) for every entry below.
1. 225 (RRRPPRLPRPFPIRPPPRVPRPIPIRP; Synthetic antimicrobial peptide) [compound 225]
2. 313 (RRRPPRVPRPIPIRPPPRVPRPVPVRP; Synthetic antimicrobial peptide) [compound 313]

**A:**
1: 97; 2: 92

Report Growth inhibition (%) for every entry below.
1. 274 (RRRPPRLPRPLPIRPPPRFPRPVPVRP; Synthetic antimicrobial peptide) [compound 274]
2. 255 (RRRPPRLPRPIPIRPPPRFPRPVPFRP; Synthetic antimicrobial peptide) [compound 255]

**A:**
[93, 93]

---

# Tested on: E. coli TOP10
# Test: Suicide expression system (SES) growth inhibition
# Type: cell-based
# Reported conditions: Table 1; 0.1% inducer (arabinose), pBAD/gIIIA in E. coli TOP10, Bioscreen C 37° C., end point OD450 vs control vector
# if value of Growth inhibition (%) reaches 60%, tag Condition met; if it stays below, tag Condition not met

| Substance | Classification |
| --- | --- |
| 6 (RRRRPFPRPFPRPFPRPFPRPFPRPFP; Synthetic antimicrobial peptide) [compound 6] | Condition not met |
| 10 (RRRPFRPPFRPPFRPPFRPPFRPPFRP; Synthetic antimicrobial peptide) [compound 10] | Condition met |
| 4 (RRRFPPRFPPRFPPRFPPRFPPRFPPR; Synthetic antimicrobial peptide) [compound 4] | Condition not met |
| 7 (RRRPFPRPFPRPFPRPFPRPFPRPFPR; Synthetic antimicrobial peptide) [compound 7] | Condition not met |

**Q:** Answer whether Growth inhibition (%) of 1 (RRRPPRFPPRFPPRFPPRFPPRFPPRF; Synthetic antimicrobial peptide) [compound 1] is greater than or equal to 60%.
**A:** Condition not met

**Q:** Moving on to 12 (RRRRPPFRPPFRPPFRPPFRPPFRPPF; Synthetic antimicrobial peptide) [compound 12]
**A:** Condition met

**Q:** Moving on to 9 (RRRPPFRPPFRPPFRPPFRPPFRPPFR; Synthetic antimicrobial peptide) [compound 9]
**A:** Condition met

**Q:** Moving on to 11 (RRRFRPPFRPPFRPPFRPPFRPPFRPP; Synthetic antimicrobial peptide) [compound 11]
**A:** Condition met

**Q:** Moving on to 8 (RRRFPRPFPRPFPRPFPRPFPRPFPRP; Synthetic antimicrobial peptide) [compound 8]
**A:** Condition not met

**Q:** Moving on to 2 (RRRPRFPPRFPPRFPPRFPPRFPPRFP; Synthetic antimicrobial peptide) [compound 2]
**A:** Condition not met

**Q:** Moving on to 5 (RRRPRPFPRPFPRPFPRPFPRPFPRPF; Synthetic antimicrobial peptide) [compound 5]
**A:** Condition not met

**Q:** Moving on to 3 (RRRRFPPRFPPRFPPRFPPRFPPRFPP; Synthetic antimicrobial peptide) [compound 3]
**A:** Condition not met

---

Consider the following substances; for each one, report its Growth inhibition (%).
# System: E. coli TOP10
# Test: Suicide expression system (SES) growth inhibition
# Assay type: cell-based
# Reported conditions: Table 5; mixed-motif library, re-tested in the Bioscreen C
Give bare numbers, in %.

Solved entries (count: 3):
| Substance | Growth inhibition (%) |
| --- | --- |
| 215 (RRRPPRLPRPFPFRPPPRPRPFPFRP; Synthetic antimicrobial peptide) [compound 215] | 94 |
| 300 (RRRPPRLPRPVPIRPPPRIPRPIPFRP; Synthetic antimicrobial peptide) [compound 300] | 92 |
| 227 (RRRPPRLPRPFPIRPPPRVPRPVPIRP; Synthetic antimicrobial peptide) [compound 227] | 94 |

Now turn to the next substance.
**Q:** // Growth inhibition (%) lookup, key: 226 (RRRPPRLPRPFPIRPPPRVPRPIPVRP; Synthetic antimicrobial peptide) [compound 226]
**A:** 94

---

Consider the following substances; for each one, report its Growth inhibition (%).
# System: E. coli TOP10
# Test: Suicide expression system (SES) growth inhibition
# Type: cell-based
# Reported conditions: Table 5; mixed-motif library, re-tested in the Bioscreen C
Kindly report the value followed by its unit.

Solved entries (count: 3):
| Substance | Experimental result |
| --- | --- |
| 315 (RRRPPRVPRPVPVRPPPRIPRPFPVRP; Synthetic antimicrobial peptide) [compound 315] | 98% |
| 273 (RRRPPRLPRPLPIRPPPRFPRPVPLRP; Synthetic antimicrobial peptide) [compound 273] | 92% |
| 302 (RRRPPRLPRPVPLRPPPRFPRPVPVRP; Synthetic antimicrobial peptide) [compound 302] | 82% |

Now turn to the next substance.
**Q:** Entry 310 (RRRPPRVPRPFPIRPPPRVPRPVPVRP; Synthetic antimicrobial peptide) [compound 310] , system E. coli TOP10: what Growth inhibition (%) was measured?
**A:** 93%

---

# System: E. coli TOP10
# Test: Suicide expression system (SES) growth inhibition
# Format: cell-based
# Reported conditions: Table 5; mixed-motif library, re-tested in the Bioscreen C
Consider the following substances; for each one, report its Growth inhibition (%).

Solved entries (count: 3):
| Substance | Measurement label | Experimental result |
| --- | --- | --- |
| 276 (RRRPPRLPRPLPIRPPPRLPRPVPVRP; Synthetic antimicrobial peptide) [compound 276] | Growth inhibition (%) | 94% |
| 309 (RRRPPRVPRPFPIRPPPRVPRPIPFRP; Synthetic antimicrobial peptide) [compound 309] | Growth inhibition (%) | 76% |
| 281 (RRRPPRLPRPLPLRPPPRFPRPVPLRP; Synthetic antimicrobial peptide) [compound 281] | Growth inhibition (%) | 91% |

Now turn to the next substance.
**Q:** Entry 263 (RRRPPRLPRPIPVRPPPRVPRPIPLRP; Synthetic antimicrobial peptide) [compound 263] , system E. coli TOP10: what Growth inhibition (%) was measured?
**A:** 94%

---

# System: E. coli TOP10
# Test: Suicide expression system (SES) growth inhibition
# Assay type: cell-based
# Reported conditions: Table 5; mixed-motif library, re-tested in the Bioscreen C
Consider the following substances; for each one, report its Growth inhibition (%).
One number for each entry, in %.

| Substance | Unit text | Experimental result |
| --- | --- | --- |
| 254 (RRRPPRLPRPIPFRPPPRVPRPFPIRP; Synthetic antimicrobial peptide) [compound 254] | % | 77 |

Report Growth inhibition (%) for every entry below.
1. 295 (RRRPPRLPRPVPFRPPPRIPRPFPLRP; Synthetic antimicrobial peptide) [compound 295]
2. 231 (RRRPPRLPRPFPLRPPPRLPRPFPFRP; Synthetic antimicrobial peptide) [compound 231]
3. 239 (RRRPPRLPRPFPVRPPPRFPRPFPLRP; Synthetic antimicrobial peptide) [compound 239]
4. 249 (RRRPPRLPRPFPVRPPPRVPRPVPIRP; Synthetic antimicrobial peptide) [compound 249]
5. 267 (RRRPPRLPRPLPFRPPPRVPRPFPIRP; Synthetic antimicrobial peptide) [compound 267]
6. 269 (RRRPPRLPRPLPFRPPPRVPRPVPVRP; Synthetic antimicrobial peptide) [compound 269]
7. 270 (RRRPPRLPRPLPFRPPPRVPRPVPVRP; Synthetic antimicrobial peptide) [compound 270]

**A:**
1: 59; 2: 98; 3: 99; 4: 93; 5: 94; 6: 90; 7: 90

Report Growth inhibition (%) for every entry below.
1. 243 (RRRPPRLPRPFPVRPPPRLPRPVPFRP; Synthetic antimicrobial peptide) [compound 243]
2. 260 (RRRPPRLPRPIPVRPPPRIPRPIPVRP; Synthetic antimicrobial peptide) [compound 260]
3. 242 (RRRPPRLPRPFPVRPPPRLPRPVPFRP; Synthetic antimicrobial peptide) [compound 242]
4. 308 (RRRPPRLPRPVPVRPPPRVPRPVPVRP; Synthetic antimicrobial peptide) [compound 308]
5. 261 (RRRPPRLPRPIPVRPPPRIPRPVPFRP; Synthetic antimicrobial peptide) [compound 261]

**A:**
1: 91; 2: 90; 3: 90; 4: 96; 5: 92

Report Growth inhibition (%) for every entry below.
1. 216 (RRRPPRLPRPFPFRPPPRPRPLPVRP; Synthetic antimicrobial peptide) [compound 216]
2. 217 (RRRPPRLPRPFPFRPPPRVPRPFPLRP; Synthetic antimicrobial peptide) [compound 217]

**A:**
1. 95
2. 93
